test system: SK-OV-3; test: NCI tumour cell line growth inhibition, 48 h
The source made the active and inactive calls. No stated cut-off is given here; in the data, active = GI50 up to about 1.1 µM and inactive = higher.
Pick one: active, inactive

Take a look at these entries with their results.
{"smiles repr": "O=C(O)c1cn2c3c(cc(N4CCN(CCO)CC4)cc3c1=O)SCC2", "cat": "inactive"}
{"smiles repr": "Nc1ncnc2c1ccn2CC=C(CO)CO", "cat": "inactive"}
{"smiles repr": "O=C(c1ccccc1)c1sc2c(=O)c(C(=O)c3ccccc3)c(C(=O)c3ccccc3)sc2c(=O)c1C(=O)c1ccccc1", "cat": "inactive"}
{"smiles repr": "Nc1ccc2c(=S)c3ccccc3[nH]c2c1", "cat": "inactive"}

[Q] For CCOc1cc2c(cc1O)C(=O)C[C@@H]1[C@@H]2CC[C@]2(C)[C@@H](O)CC[C@@H]12 , what call appears in the results of this test?
[A] active

[Q] Please answer likewise for c1ccc(C(Oc2noc3ccccc23)c2ccccc2)cc1
[A] inactive

Value source: ChEMBL document CHEMBL1201862
